# Tested on: KM12
# Assay info: NCI tumour cell line growth inhibition, 48 h
Calls of active or inactive are those of the source. Cut-off read from the data, not from the text of the source: active = GI50 up to about 1.1 µM and inactive = higher.
Pick from true (1) for active, false (0) for inactive when you respond.

Examples from the recorded data:
O=C(OC1CCC2OOC1O2)c1ccc([N+](=O)[O-])cc1 (stereo not given) ... false (0)
CC(CNC(=O)c1ccccc1)(CNC(=O)c1ccccc1)[N+](=O)[O-] ... false (0)
Nc1nc(Cl)nc(NCc2ccccc2)n1 ... false (0)
COc1ccccc1[C@@H]1CCC2CC[C@@H](c3ccccc3OC)[N+]21Cc1ccccc1 (stereo not given in full) ... true (1)

Ask | Per the assay record, what outcome was assigned to `CC1(C)CCC[C@]2(C)[C@@H]1CC[C@@]13O[C@@H]1C1=C(CO)C(=O)O[C@]14O[C@@H]4[C@@H]23` ?
Reply | false (0)
